Taken from ChEMBL document CHEMBL4002590.

Assay: Oral bioavailability in rat at 1 mg/kg
Type: ADME, organism-based
Conditions: in vivo
reportedEndpoint: bioavailability

Query :: Field request: bioavailability | item: `CCc1cc(O)c(F)cc1-c1ccc2c(-c3nc4c([nH]3)CCN(C(=O)c3cnc(N5CCCCC5)cn3)C4)n[nH]c2c1`
Result :: < 5%

###

Biological target: Tyrosine-protein kinase JAK3 (Homo sapiens, UniProt P52333)
Sequence (P52333 whole entry): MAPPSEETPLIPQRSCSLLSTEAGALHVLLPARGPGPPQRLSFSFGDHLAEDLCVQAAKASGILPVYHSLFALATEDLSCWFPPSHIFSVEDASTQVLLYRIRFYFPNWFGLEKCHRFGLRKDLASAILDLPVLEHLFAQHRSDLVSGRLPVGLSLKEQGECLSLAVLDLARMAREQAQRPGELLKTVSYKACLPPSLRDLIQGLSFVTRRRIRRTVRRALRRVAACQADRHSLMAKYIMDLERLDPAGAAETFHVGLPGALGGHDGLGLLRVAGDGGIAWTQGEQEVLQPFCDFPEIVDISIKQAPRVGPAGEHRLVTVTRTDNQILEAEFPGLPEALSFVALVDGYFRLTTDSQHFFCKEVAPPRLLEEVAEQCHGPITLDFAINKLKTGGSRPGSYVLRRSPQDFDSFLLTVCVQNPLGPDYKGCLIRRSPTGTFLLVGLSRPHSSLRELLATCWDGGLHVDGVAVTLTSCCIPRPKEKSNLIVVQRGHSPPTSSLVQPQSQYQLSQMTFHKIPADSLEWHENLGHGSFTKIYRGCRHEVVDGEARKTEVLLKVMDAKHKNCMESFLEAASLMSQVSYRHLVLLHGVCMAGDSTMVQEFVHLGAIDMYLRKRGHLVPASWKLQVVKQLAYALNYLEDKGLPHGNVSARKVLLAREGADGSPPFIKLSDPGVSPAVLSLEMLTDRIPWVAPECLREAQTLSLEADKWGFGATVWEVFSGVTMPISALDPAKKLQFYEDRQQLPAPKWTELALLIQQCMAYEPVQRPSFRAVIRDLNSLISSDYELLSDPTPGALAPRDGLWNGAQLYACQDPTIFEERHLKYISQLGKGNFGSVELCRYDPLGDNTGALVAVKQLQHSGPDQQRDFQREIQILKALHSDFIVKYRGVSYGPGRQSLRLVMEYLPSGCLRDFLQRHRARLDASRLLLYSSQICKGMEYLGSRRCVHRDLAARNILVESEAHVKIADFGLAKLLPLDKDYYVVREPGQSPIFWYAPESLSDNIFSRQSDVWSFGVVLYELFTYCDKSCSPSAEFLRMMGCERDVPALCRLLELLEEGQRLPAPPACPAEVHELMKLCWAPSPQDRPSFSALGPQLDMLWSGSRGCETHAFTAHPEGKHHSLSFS
Assay: Inhibition of GST tagged human recombinant JAK3 catalytic domain expressed in baculovirus using peptide substrate preincubated for 60 mins followed by substrate addition and measured after 60 mins by microfluidic assay
Classes are defined on IC50 with ranges band 1 (below 7 nM), band 2 (7 nM to below 100 nM), band 3 (100 nM or more)

Some solved cases for reference:
* Oc1cccc(-c2ccc3c(-c4nc5ccccc5[nH]4)n[nH]c3c2)c1 | band 3
* CCc1cc(O)ccc1-c1ccc2c(-c3nc4c([nH]3)CN(S(C)(=O)=O)CC4)n[nH]c2c1 | band 1
* CCCc1cc(O)ccc1-c1ccc2c(-c3nc4ccccc4[nH]3)n[nH]c2c1 | band 3
* CCc1cc(O)c(F)cc1-c1ccc2c(-c3nc4c([nH]3)CN(Cc3ccccc3)CC4)n[nH]c2c1 | band 2
* CCc1cc(O)ccc1-c1ccc2c(-c3nc4ccccc4[nH]3)n[nH]c2c1 | band 2
* CCc1cc(O)ccc1-c1ccc2c(-c3ncc[nH]3)n[nH]c2c1 | band 1

Query :: For the record `CCc1cc(O)ccc1-c1ccc2c(C(=O)Nc3ccc(C)nc3)n[nH]c2c1` , report the class its IC50 corresponds to.
Result :: band 3

Query :: Proceed to `C[C@@H]1CCN(C(=O)N2CCCC2)C[C@@H]1N(C)c1ncnc2[nH]ccc12`
Result :: band 3

Query :: Another compound: `C[C@@H]1CCN(C(=O)N2CC[C@@H](S(=O)(=O)c3cccc(O)c3)C2)C[C@@H]1N(C)c1ncnc2[nH]ccc12`
Result :: band 2

Query :: Also `CCc1cc(O)ccc1-c1ccc2c(-c3nc4c([nH]3)CN(C)CC4)n[nH]c2c1` ?
Result :: band 1

Query :: Subsequent entry: `CCc1cc(O)ccc1-c1ccc2c(C(=O)N(C)C)n[nH]c2c1`
Result :: band 3

Query :: Now the same for `CCc1cc(O)c(F)cc1-c1ccc2c(-c3nc4c([nH]3)CCN(C(=O)c3ccc(F)cc3)C4)n[nH]c2c1`
Result :: band 1

Query :: What do you have for `CCc1cc(O)c(F)cc1-c1ccc2c(-c3nc4ccccc4[nH]3)n[nH]c2c1` ?
Result :: band 2

Query :: Input `CC(C)c1cc(O)ccc1-c1ccc2c(-c3nc4ccccc4[nH]3)n[nH]c2c1`
Result :: band 3

Query :: Param item: `CCc1cc(O)ccc1-c1ccc2c(C(N)=O)n[nH]c2c1`
Result :: band 1

Query :: Item: `CCc1cc(O)ccc1-c1ccc2c(C(=O)NC)n[nH]c2c1`
Result :: band 3

Query :: Next entry: `CCc1cc(O)c(F)cc1-c1ccc2c(-c3nc4c([nH]3)CCN(C(=O)c3cnc(N5CCCCC5)cn3)C4)n[nH]c2c1`
Result :: band 2
